Origin of measurements: PubChem BioAssay AID485374

Experiment: inhibitors of enzymatic SUMO conjugation, SAR follow-up, biochemical, AlphaScreen (AID 485374)
Settings: AlphaScreen biochemical SUMOylation assay
The source made the active and inactive calls. The rule behind the calls is not given here.
Pick one: TRUE = active, FALSE = inactive

Compound	Answer Label
CC(=O)NC1C(=O)N(CCN2CCOCC2)c2ccc(C)cc21 (stereo not given)	FALSE
COC(=O)C1=C(C(=O)OC)C2([C@@H](C)Nc3ccc(OC)cc3)C=CC1O2 (stereo not given in full)	TRUE
COC(=O)C1=C(C(=O)OC)C2([C@@H](C)Nc3ccc(C)cc3)C=CC1O2 (stereo not given in full)	TRUE
COC(=O)C1=C(C(=O)OC)C2([C@@H](Cc3ccccc3)Nc3ccc(C)cc3)C=CC1O2 (stereo not given in full)	TRUE
COCCNC(=O)c1c(NC(=O)c2ccccc2)n(Cc2ccccc2)c2nc3ccccc3nc12	TRUE

Write down the call the test reported for this compound. Item: COC(=O)C1=C(C(=O)OC)C2([C@H](C)Nc3ccc(Cl)cc3)C=CC1O2 (stereo not given in full)
TRUE

Write down the call the test reported for this compound. Item: COC(=O)C1=C(C(=O)OC)C2([C@@H](Cc3ccc(OC)cc3)Nc3ccccc3)C=CC1O2 (stereo not given in full)
TRUE

Write down the call the test reported for this compound. Item: CCCC1=NN(c2ccccc2)C(=O)/C1=C\c1ccc(O)cc1
TRUE

Write down the call the test reported for this compound. Item: COc1ccc2c(c1)C(NC(C)=O)C(=O)N2CCN1CCOCC1 (stereo not given)
TRUE

Write down the call the test reported for this compound. Item: N#Cc1c(NC(=O)c2ccccc2Cl)n(C2CCCCC2)c2nc3ccccc3nc12
TRUE
